Collected pEC50 values appear next to each entry.
- MEASUREMENT_TARGET: T1, IL-3Rα, CD123 (interleukin 3 receptor subunit alpha) as expressed on CD123-positive human cancer cell lines … (human, UniProt P26951 20-378)
- T1 construct: Target of the flow cytometry on the human cell line MOLM-13 (CD123-positive); NCBI Gene ID 3563; also called IL3RA; IL3R-alpha
- T1 sequence: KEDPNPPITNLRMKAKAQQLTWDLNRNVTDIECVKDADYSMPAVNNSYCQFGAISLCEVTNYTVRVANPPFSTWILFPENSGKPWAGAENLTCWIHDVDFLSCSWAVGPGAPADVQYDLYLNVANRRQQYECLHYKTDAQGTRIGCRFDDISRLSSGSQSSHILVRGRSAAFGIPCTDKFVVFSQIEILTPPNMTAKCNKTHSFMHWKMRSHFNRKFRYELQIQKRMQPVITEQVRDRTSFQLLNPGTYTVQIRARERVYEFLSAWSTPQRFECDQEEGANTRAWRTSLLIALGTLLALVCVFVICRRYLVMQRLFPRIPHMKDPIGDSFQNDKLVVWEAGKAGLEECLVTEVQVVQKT
- METHOD_NOTES: flow cytometry on MOLM-13 cells, anti-kappa-FITC secondary antibody
A value of pEC50 is the negative decimal logarithm of a concentration given in moles per litre.

Task: Return reported pEC50; argument: TPP-8987 (antibody, human IgG1, kappa, V domains shown, Humanized and germlined variant of 7G3, human IgG1 kappa) VH: QVQLVQSGAEVKKPGSSVKVSCKASGGTFSDYYMKWVRQAPGQGLEWMGDIIPSNGATFYNQKFKGQVTITADESTSTAYMELSSLRSEDTAVYYCARSHLLRASWFAYWGQGTLVTVSS VL: DIVMTQSPDSLAVSLGERATINCESSQSVLNSGNQKNYLTWYQQKPGQPPKLLIYWASTRESGVPDRFSGSGSGTDFTLTISSLQAEDVAVYYCQNDYSYPYTFGQGTKLEIKR
Output: 8.49

Task: Return reported pEC50; argument: TPP-8617 (antibody, human IgG1, kappa, V domains shown, Humanized 12F1 graft on IGKV4-1 / IGHV5-51; also called Hum-TPP6013-17) VH: EVQLVQSGAEVKKPGESLKISCKGSDYSITSGYYWNWVRQMPGKGLEWMGYISYDGSNNYNPSLKNGQVTISADKSISTAYLQWSSLKASDTAMYYCSRGEGFYFDSWGQGTLVTVSS VL: DIMMSQSPSSLAVSVGEKFTMTCKSSQSLFFGSTQKNYLAWYQQKPGQSPKLLIYWASTRESGVPDRFTGSGSGTDFTLAISSVMPEDLAVYYCQQYYNYPWTFGGGTKLEIKR
Output: 8.85

Task: Return reported pEC50; argument: TPP-8695 (antibody, human IgG1, kappa, V domains shown, also called Variant4-hIgG1kappa) VH: QVQLVQSGAEVKKPGSSVKVSCKASGGTFSDYYMKWVRQAPGQGLEWMGDIIPSNGATFYNQKFKGQVTITADESTSTAYMELSSLRSEDTAVYYCARSHLLRASWFAYWGQGTLVTVSS VL: DIVMTQSPDSLAVSLGERATINCESSQSLLNSGNQKNYLTWYQQKPGQPPKLLIYWASTRESGVPDRFSGSGSGTDFTLTISSLQAEDVAVYYCQNDYSYPYTFGQGTKLEIKR
Output: 8.95

Task: Return reported pEC50; argument: TPP-9075 (antibody, human IgG1, kappa, V domains shown) VH: EVQLLESGGGLVQPGGSLRLSCAVSDYSITSGYYSNWIRQAPGKKLEWMGYISYDGSNNYNPSLKNGRITISRDTSKNTFYLQMNSLRAEDTAVYYCARGEGFYFDSWGQGTLVTVSS VL: EIVLTQSPGTLSLSPGERATLSCKSSQSLFFGSTQKNYLAWYQQKPGQAPRLLIYWASTRESGIPDRFSGSGSGTDFTLTISRLEPEDFAVYYCQQYYNYPWTFGQGTKLEIKR
Output: 8.27

Task: Return reported pEC50; argument: TPP-9476 (antibody, human IgG1, kappa, V domains shown, Humanized and germlined variant of 7G3, human IgG1 kappa) VH: QVQLVQSGAEVKKPGSSVKVSCKASGGTFSDYYMKWVRQAPGQGLEWMGDIIPSNGATFYNQKFKGRVTITADESTSTAYMELSSLRSEDTAVYYCARSHLLRASWFAYWGQGTLVTVSS VL: DIVMTQSPDSLAVSLGERATINCESSQSVLNSGNQKNYLTWYQQKPGQPPKLLIYWASTRESGVPDRFSGSGSGTDFTLTISSLQAEDVAVYYCQNDYSYPYTFGQGTKLEIKR
Output: 8.55
